tgt: full-length HAQ STING (Homo sapiens, UniProt Q86WV6, G230A/H232R/R293Q/R71H)
Construct: AviTag (after GG linker) (C); HRV3C cleavage site (after GS linker) (C); HIS8 (C); made in house; host or cells: Trichoplusia ni (Hi-Five) insect cells infected with baculovirus (virus generated and amplified in Sf21 cells); used as a washed membrane preparation
Sequence (Q86WV6 with tags, fused parts or gaps R71H/G230A/H232R/R293Q): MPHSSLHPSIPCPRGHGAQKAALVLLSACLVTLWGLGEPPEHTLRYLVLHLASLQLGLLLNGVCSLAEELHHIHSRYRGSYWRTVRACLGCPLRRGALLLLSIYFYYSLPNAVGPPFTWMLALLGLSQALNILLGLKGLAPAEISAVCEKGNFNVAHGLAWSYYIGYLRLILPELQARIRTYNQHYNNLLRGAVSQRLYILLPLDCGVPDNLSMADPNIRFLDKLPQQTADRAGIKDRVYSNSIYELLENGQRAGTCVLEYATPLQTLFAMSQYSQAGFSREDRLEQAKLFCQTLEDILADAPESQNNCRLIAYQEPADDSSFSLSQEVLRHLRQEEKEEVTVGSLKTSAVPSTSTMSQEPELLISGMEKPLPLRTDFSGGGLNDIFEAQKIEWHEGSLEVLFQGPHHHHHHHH
assay: 3H-cGAMP filtration binding assay (HAQ STING)
applied_conditions: competition with tritiated cGAMP, HAQ STING membrane
experimental_endpoint: EC50
Could you give the number and then its unit, please?

{"columns": ["item_smiles", "endpoint_value"],
 "data": [
  ["COc1cc2sc(C(=O)C[C@H](C)C(=O)O)cc2cc1OCCCCOc1cc2sc(C(=O)C[C@H](C)C(=O)O)cc2cc1OC", "6 nM"],
  ["COc1cc2sc(C(=O)C[C@H](C)C(=O)O)cc2cc1CCCOc1cc2cc(C(=O)C[C@H](C)C(=O)O)sc2cc1OC", "16 nM"],
  ["COc1cc2sc(C(=O)CCC(=O)O)cc2cc1OCCOc1c(OC)cc2sc(C(=O)C[C@H](C)C(=O)O)cc2c1F", "3 nM"],
  ["COc1cc2sc(CC[C@H](C)C(=O)O)cc2c(F)c1OCCCOc1c(OC)cc2sc(C(=O)C[C@H](C)C(=O)O)cc2c1Br", "395 nM"],
  ["COc1cc2sc(C(=O)C[C@@H](C)C(=O)O)cc2cc1OCCOc1c(OC)cc2sc(C(=O)C[C@H](C)C(=O)O)cc2c1F", "4 nM"]
]}

Form field EC50 for item COc1cc2sc(C(=O)C[C@H](C)C(=O)O)cc2cc1OCCCOc1cc2sc(C(=O)C[C@H](C)C(=O)O)cc2cc1OC on full-length HAQ STING (Homo sapiens, UniProt Q86WV6, G230A/H232R/R293Q/R71H): 3 nM
